The measured values listed here are drawn from the supplement of paper PMC10567573.

B1: PCDHGA10 (parent)
chain: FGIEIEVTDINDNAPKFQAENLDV

variants of: B1; assay: protein stability index of a GFP-peptide fusion (GPS, HEK-293T) (PSI 1-6); higher = more stable; details: c terminus: a fixed tail appended;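 note: lentivirally expressed fusions sorted by FACS into six bins by GFP to DsRed ratio, PSI derived from sequencing read proportions per bin multiplied by bin number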

var | protein stability index
N13C | 2.52
Q18E | 3.33
F1V | 2.93
D23C | 1.82
Q18R | 2.08
F17P | 4.03
A14F | 2.35
T8N | 3.81
E6Q | 2.39
T8Y | 1.17
I3F | 2.71
N21P | 2.6
V24L | 3.43
L22C | 3.27
V24M | 2.5
N13W | 1.54
N11M | 2.15
A19C | 2.59
I10W | 2.03
P15T | 3.41
V7W | 1.78
L22N | 3.69
A19Q | 3.32
E4W | 2.5
P15V | 2.55
I5V | 3.48
T8D | 3.79
Q18H | 2.93
N21L | 2.13
N11W | 1.96
Q18K | 3
T8I | 1.76
F1H | 4.67
I5C | 4.28
P15S | 3.14
Q18N | 3.25
P15H | 2.73
E4K | 2.11
E6P | 4.08
E20M | 2.06
E20G | 2.11
I5L | 3.94
G2H | 2.18
L22S | 4.17
Q18V | 2.54
L22A | 3.34
L22Y | 2.83
N11C | 2.28
E20R | 1.83
N21T | 2.89
N11L | 1.77
E6F | 2.43
A14Y | 1.71
E6I | 2.05
V24T | 3.47
I3E | 5.11
I3Y | 3.84
D23G | 2.29
L22R | 3.7
F17R | 3.9
N21Y | 1.73
E20K | 2.08
E4H | 2.2
N11I | 2.04
P15C | 2.5
K16P | 3.31
V24C | 2.8
F17C | 3.73
Q18M | 2.13
N21W | 1.37
V7E | 4.74
E20W | 2.11
D9S | 1.85
K16G | 3.56
D9Q | 2.15
F17M | 3.58
I10N | 4.14
F1Q | 4.58
D23W | 1.46
V7P | 4.72
L22I | 3.02
P15Y | 2.23
A14I | 2.49
V7G | 4.3
E4I | 1.75
N13K | 3.12
Q18P | 2.41
N11A | 2.88
N13R | 2.67
K16S | 2.52
V7D | 5.46
